- tgt: UniProt P08183
- methodDescription: Reversal of human MDR1-mediated multidrug resistance in mouse L5178Y cells expressing MDR1 assessed as mean fluorescence intensity of rhodamine-123 uptake at 20 uM after 10 mins by flow cytometry
- Format: cell-based
Below, each entry is listed with its recorded Activity.
Write the value as a bare number.

- compound: "COC(C)(C)/C=C/C[C@@H](C)[C@H]1CC[C@@]2(C)[C@@H]3[C@@H](O[C@H]4O[C@@H](CO)[C@H](O)[C@H](O)[C@@H]4O)C=C4[C@@H](CC[C@H](O)C4(C)C)[C@]3(C)CC[C@]12C [BALSAMINOSIDE A]"
  result: 1171.1

Kindly review the next compound as well.
Req: Quick one: Activity of C[C@H](C/C=C/C(C)(C)O)[C@H]1CC[C@@]2(C)[C@@H]3[C@@H](O)C=C4[C@@H](CC[C@H](O)[C@]4(C)CO)[C@]3(C)CC[C@]12C [BALSAMINAGENIN A] ?
Resp: 579.8

---

Below, each entry is listed with its recorded Activity.
- tgt: ATP-dependent translocase ABCB1 (Homo sapiens)
- Sequence (P08183 whole entry): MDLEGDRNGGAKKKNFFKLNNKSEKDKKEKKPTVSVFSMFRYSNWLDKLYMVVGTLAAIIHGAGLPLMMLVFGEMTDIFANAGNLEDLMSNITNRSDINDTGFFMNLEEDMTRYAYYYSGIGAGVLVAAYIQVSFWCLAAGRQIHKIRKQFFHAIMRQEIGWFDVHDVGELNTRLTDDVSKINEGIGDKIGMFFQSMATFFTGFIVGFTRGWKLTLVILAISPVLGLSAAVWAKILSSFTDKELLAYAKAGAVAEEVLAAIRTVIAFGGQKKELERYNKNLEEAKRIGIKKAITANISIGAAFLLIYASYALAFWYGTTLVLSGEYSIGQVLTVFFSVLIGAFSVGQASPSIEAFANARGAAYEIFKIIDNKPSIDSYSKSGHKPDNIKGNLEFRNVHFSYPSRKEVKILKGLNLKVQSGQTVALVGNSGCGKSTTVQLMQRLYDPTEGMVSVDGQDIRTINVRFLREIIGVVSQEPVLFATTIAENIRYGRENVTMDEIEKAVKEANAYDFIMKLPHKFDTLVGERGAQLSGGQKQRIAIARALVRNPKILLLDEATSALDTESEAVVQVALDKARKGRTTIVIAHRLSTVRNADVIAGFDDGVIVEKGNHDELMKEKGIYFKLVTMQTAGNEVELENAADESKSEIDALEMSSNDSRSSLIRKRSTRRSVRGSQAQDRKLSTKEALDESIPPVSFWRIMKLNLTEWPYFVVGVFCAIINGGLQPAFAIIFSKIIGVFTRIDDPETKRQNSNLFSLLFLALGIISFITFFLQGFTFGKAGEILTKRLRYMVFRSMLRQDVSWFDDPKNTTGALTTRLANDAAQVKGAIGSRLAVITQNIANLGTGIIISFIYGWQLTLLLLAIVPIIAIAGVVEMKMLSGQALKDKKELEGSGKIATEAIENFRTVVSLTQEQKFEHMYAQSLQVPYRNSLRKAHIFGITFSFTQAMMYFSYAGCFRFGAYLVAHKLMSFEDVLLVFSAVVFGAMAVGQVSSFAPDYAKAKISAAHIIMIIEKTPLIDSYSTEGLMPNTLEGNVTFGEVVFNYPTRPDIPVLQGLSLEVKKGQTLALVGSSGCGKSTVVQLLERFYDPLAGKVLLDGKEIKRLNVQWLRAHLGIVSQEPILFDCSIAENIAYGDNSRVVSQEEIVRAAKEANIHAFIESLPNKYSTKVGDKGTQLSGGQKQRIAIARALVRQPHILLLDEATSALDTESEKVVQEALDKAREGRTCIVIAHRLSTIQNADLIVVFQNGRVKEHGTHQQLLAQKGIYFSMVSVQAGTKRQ
- methodDescription: Reversal of human MDR1-mediated multidrug resistance in mouse L5178Y cells expressing MDR1 assessed as fluorescence activity ratio at 2 uM after 10 mins by rhodamine-123 exclusion test
- Type: cell-based
Write the value as a bare number.

Previously resolved entries follow.
- molecule: "COC(C)(C)/C=C/C[C@@H](C)[C@H]1CC[C@@]2(C)[C@@H]3[C@@H](O[C@H]4O[C@@H](CO)[C@H](O)[C@H](O)[C@@H]4O)C=C4[C@@H](CC[C@H](O)C4(C)C)[C@]3(C)CC[C@]12C [BALSAMINOSIDE A]"
  reportedEndpoint: "Activity"
  result: 1.45
- molecule: "CCC(=O)O[C@H]1CC[C@@H]2C(=C[C@H](OC)[C@@H]3[C@@]2(C)CC[C@]2(C)[C@@H]([C@H](C)C[C@H](C=C(C)C)OC(=O)CC)CC[C@@]32C)C1(C)C [KARAVOATE D]"
  reportedEndpoint: "Activity"
  result: 0.9

Req: Quick one: Activity of CCCC(=O)O[C@@H](C=C(C)C)C[C@@H](C)[C@H]1CC[C@@]2(C)[C@@H]3[C@@H](OC)C=C4[C@@H](CC[C@H](O)C4(C)C)[C@]3(C)CC[C@]12C [KARAVOATE E] ?
Resp: 1

Req: Quick one: Activity of CO[C@H]1C=C2[C@@H](CC[C@H](O)C2(C)C)[C@]2(C)CC[C@]3(C)[C@@H]([C@H](C)C[C@H](C=C(C)C)OC(C)=O)CC[C@@]3(C)[C@H]12 [KARAVOATE A] ?
Resp: 35.2

---

- System: L5178Y
- methodDescription: Antiproliferative activity against multidrug resistance mouse L5178Y cells expressing human MDR1 after 72 hrs by MTT assay
- Type: functional
- statedConditions: read-out: ID50 (the source's name)
reportedEndpoint: IC50 (µM)
Give a bare numeral; the unit µM is implied.

- compound: "COC(C)(C)/C=C/C[C@@H](C)[C@H]1CC[C@@]2(C)[C@@H]3[C@@H](O)C=C4[C@@H](CC[C@H](O)[C@]4(C)CO)[C@]3(C)CC[C@]12C [BALSAMINAGENIN B]"
  reportedEndpoint: "IC50"
  result: 16.8
- compound: "CCCC(=O)O[C@@H](C=C(C)C)C[C@@H](C)[C@H]1CC[C@@]2(C)[C@@H]3[C@@H](OC)C=C4[C@@H](CC[C@H](O)C4(C)C)[C@]3(C)CC[C@]12C [KARAVOATE E]"
  reportedEndpoint: "IC50"
  result: 73.8

Kindly review the next compound as well.
Req: Quick one: IC50 of CO[C@H]1C=C2[C@@H](CC[C@H](O)C2(C)C)[C@]2(C)CC[C@]3(C)[C@@H]([C@H](C)C[C@@H](O)C=C(C)C)CC[C@@]3(C)[C@H]12 [KARAVELAGENIN C] ?
Resp: 16.8
